testProtocol: Racecadotril and degradation products over time in Acetate and Citrate at pH 3.6, 4.0, 4.5 (untitled table)
Format: physicochemical
assaySetup: Citrate, pH 4.5, 3 week
resultType: Thiorphan (%)
Give your result in % as a bare value.

Exercise: Need Thiorphan of CC(=O)SCC(Cc1ccccc1)C(=O)NCC(=O)OCc1ccccc1 (racemic) [Racecadotril] , thanks.
Solution: 0.06

---

testProtocol: Racecadotril and degradation products over time in Acetate and Citrate at pH 3.6, 4.0, 4.5 (untitled table)
Assay type: physicochemical
assaySetup: Acetate, pH 4.5, 3 week
resultType: Benz Alcohol

Exercise: Need Benz Alcohol of CC(=O)SCC(Cc1ccccc1)C(=O)NCC(=O)OCc1ccccc1 (racemic) [Racecadotril] , thanks.
Solution: 0.59%
